B1: library; a variant is named by its letters at N, in order (parent)
chain: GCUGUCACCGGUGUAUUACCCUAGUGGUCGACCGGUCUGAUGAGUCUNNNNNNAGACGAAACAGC

variants of: B1; experiment: FACS-Seq fitted mean relative fluorescence mCherry/BFP with ligand (log10 relative fluorescence); ligand: hypoxanthine (xanthine aptamer); ligand concentration (+) FACS-Seq: 5 mM; higher = higher reporter protein expression; conditions: HEK293T, ligand present: yes
measured_attribute: FACS-Seq fitted mean (log10)
Give a plain numeric answer without units written out.

Suppose we examine the variant "GGCAGC" ; what FACS-Seq fitted mean (log10) value has been reported?
0.651

Suppose we examine the variant "CAAAUC" ; what FACS-Seq fitted mean (log10) value has been reported?
0.495

Suppose we examine the variant "AAUUAA" ; what FACS-Seq fitted mean (log10) value has been reported?
0.276

Suppose we examine the variant "GCCUUG" ; what FACS-Seq fitted mean (log10) value has been reported?
0.64

Suppose we examine the variant "GCCUUA" ; what FACS-Seq fitted mean (log10) value has been reported?
-0.197

Suppose we examine the variant "AGUCGU" ; what FACS-Seq fitted mean (log10) value has been reported?
0.561

Suppose we examine the variant "ACCCGG" ; what FACS-Seq fitted mean (log10) value has been reported?
0.714

Suppose we examine the variant "UAGUCA" ; what FACS-Seq fitted mean (log10) value has been reported?
0.647

Suppose we examine the variant "ACUCCG" ; what FACS-Seq fitted mean (log10) value has been reported?
0.615

Suppose we examine the variant "ACUGCG" ; what FACS-Seq fitted mean (log10) value has been reported?
0.557

Suppose we examine the variant "AAGUUG" ; what FACS-Seq fitted mean (log10) value has been reported?
0.435

Suppose we examine the variant "UAUACU" ; what FACS-Seq fitted mean (log10) value has been reported?
0.343

Suppose we examine the variant "AAGUAA" ; what FACS-Seq fitted mean (log10) value has been reported?
0.457

Suppose we examine the variant "ACGACG" ; what FACS-Seq fitted mean (log10) value has been reported?
0.706

Suppose we examine the variant "UACUUU" ; what FACS-Seq fitted mean (log10) value has been reported?
0.288

Suppose we examine the variant "CUCGGC" ; what FACS-Seq fitted mean (log10) value has been reported?
0.24

Suppose we examine the variant "CAGUAU" ; what FACS-Seq fitted mean (log10) value has been reported?
0.629

Suppose we examine the variant "GUGCAC" ; what FACS-Seq fitted mean (log10) value has been reported?
0.536

Suppose we examine the variant "UAAAAU" ; what FACS-Seq fitted mean (log10) value has been reported?
0.454

Suppose we examine the variant "AAAGAA" ; what FACS-Seq fitted mean (log10) value has been reported?
0.207

Suppose we examine the variant "AACUCG" ; what FACS-Seq fitted mean (log10) value has been reported?
0.644

Suppose we examine the variant "UACUAA" ; what FACS-Seq fitted mean (log10) value has been reported?
0.206

Suppose we examine the variant "GGAUGC" ; what FACS-Seq fitted mean (log10) value has been reported?
0.483

Suppose we examine the variant "CGGCAU" ; what FACS-Seq fitted mean (log10) value has been reported?
0.0858

Suppose we examine the variant "GCAGGA" ; what FACS-Seq fitted mean (log10) value has been reported?
0.705

Suppose we examine the variant "GAUAGA" ; what FACS-Seq fitted mean (log10) value has been reported?
0.547

Suppose we examine the variant "GAAUUC" ; what FACS-Seq fitted mean (log10) value has been reported?
0.388

Suppose we examine the variant "CCGUGA" ; what FACS-Seq fitted mean (log10) value has been reported?
0.64

Suppose we examine the variant "ACUGAC" ; what FACS-Seq fitted mean (log10) value has been reported?
0.347

Suppose we examine the variant "AAACAU" ; what FACS-Seq fitted mean (log10) value has been reported?
0.664

Suppose we examine the variant "GCUACC" ; what FACS-Seq fitted mean (log10) value has been reported?
0.599

Suppose we examine the variant "CACACU" ; what FACS-Seq fitted mean (log10) value has been reported?
0.266

Suppose we examine the variant "ACGAUG" ; what FACS-Seq fitted mean (log10) value has been reported?
0.629

Suppose we examine the variant "GUUUCC" ; what FACS-Seq fitted mean (log10) value has been reported?
0.641

Suppose we examine the variant "UUGACA" ; what FACS-Seq fitted mean (log10) value has been reported?
0.491

Suppose we examine the variant "UUCCCG" ; what FACS-Seq fitted mean (log10) value has been reported?
0.514

Suppose we examine the variant "GCGGAC" ; what FACS-Seq fitted mean (log10) value has been reported?
0.546

Suppose we examine the variant "AAUGAU" ; what FACS-Seq fitted mean (log10) value has been reported?
0.571

Suppose we examine the variant "GGGUGC" ; what FACS-Seq fitted mean (log10) value has been reported?
0.348

Suppose we examine the variant "UAAGGA" ; what FACS-Seq fitted mean (log10) value has been reported?
0.472

Suppose we examine the variant "GUGCCG" ; what FACS-Seq fitted mean (log10) value has been reported?
0.557

Suppose we examine the variant "GGAUAA" ; what FACS-Seq fitted mean (log10) value has been reported?
0.552

Suppose we examine the variant "AGGGCA" ; what FACS-Seq fitted mean (log10) value has been reported?
0.174

Suppose we examine the variant "AGUGAU" ; what FACS-Seq fitted mean (log10) value has been reported?
0.534

Suppose we examine the variant "AUCCUC" ; what FACS-Seq fitted mean (log10) value has been reported?
-0.394

Suppose we examine the variant "CCGACU" ; what FACS-Seq fitted mean (log10) value has been reported?
0.381
